Tested on: Escherichia coli TOP10;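 also: peptides expressed intracellularly from a pBAD plasmid library in pooled LB shake-flask culture, induced with 0.3% L-arabinose, DNA abundance read by NGS, three biological replicates, DESeq2 with apeglm shrinkage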
Test: shrunken log2 fold change of peptide-encoding DNA abundance (4.5 h post-induction vs induction); higher = less antimicrobial activity (less host growth inhibition)
Conditions: time post-induction: 4.5 h; library: site-saturation at positions 5, 18, 19, 20
Kindly return fulfilled if reported shrunken log2 fold change is no lower than -0.2; return not fulfilled if it is lower.

Solved cases (10 shown):
query: Threshold query (shrunken log2 fold change >= -0.2) on "RRIRCRPPRLPRPRPRPHCGPRP"
result: fulfilled

query: Threshold query (shrunken log2 fold change >= -0.2) on "RRIRDRPPRLPRPRPRPMNCPRP"
result: fulfilled

query: Threshold query (shrunken log2 fold change >= -0.2) on "RRIRFRPPRLPRPRPRPMCTPRP"
result: fulfilled

query: Threshold query (shrunken log2 fold change >= -0.2) on "RRIRLRPPRLPRPRPRPHIRPRP"
result: fulfilled

query: Threshold query (shrunken log2 fold change >= -0.2) on "RRIRKRPPRLPRPRPRPPQHPRP"
result: fulfilled

query: Threshold query (shrunken log2 fold change >= -0.2) on "RRIRSRPPRLPRPRPRPCLGPRP"
result: fulfilled

query: Threshold query (shrunken log2 fold change >= -0.2) on "RRIRDRPPRLPRPRPRPNGGPRP"
result: fulfilled

query: Threshold query (shrunken log2 fold change >= -0.2) on "RRIRYRPPRLPRPRPRPNCAPRP"
result: not fulfilled

query: Threshold query (shrunken log2 fold change >= -0.2) on "RRIRFRPPRLPRPRPRPVLVPRP"
result: not fulfilled

query: Threshold query (shrunken log2 fold change >= -0.2) on "RRIRRRPPRLPRPRPRPWDLPRP"
result: fulfilled

Further cases:
query: Threshold query (shrunken log2 fold change >= -0.2) on "RRIRSRPPRLPRPRPRPNQLPRP"
result: not fulfilled

query: Threshold query (shrunken log2 fold change >= -0.2) on "RRIRTRPPRLPRPRPRPASYPRP"
result: not fulfilled

query: Threshold query (shrunken log2 fold change >= -0.2) on "RRIRIRPPRLPRPRPRPWVLPRP"
result: fulfilled

query: Threshold query (shrunken log2 fold change >= -0.2) on "RRIRERPPRLPRPRPRPHTQPRP"
result: not fulfilled

// provenance: the supplement of paper PMC9112550
